Experiment: Plasma concentration versus time of Compound I and metabolite Compound III in patients dosed QD or BID with Form B of Compound II plus fulvestrant
Type: in vivo, human
Measurement parameters: human, plasma, oral, 100 mg, Cohort 6, 100 mg BID of Form B, Day 29, 0.0 h; read-out: Compound I Concentration, Min
Result type: concentration at 0 h (ng/mL)

[
  {
    "Given smiles": "CC(C)N1CCN(c2ccc(Nc3ncc4cc5n(c4n3)C3(CCCCC3)CNC5=O)nc2)CC1",
    "Result": 1.54
  }
]

====

Experiment: Plasma concentration versus time of Compound I and metabolite Compound III in patients dosed QD or BID with Form B of Compound II plus fulvestrant
Format: in vivo, human
Measurement parameters: human, plasma, oral, 500 mg, Cohort 4, 500 mg QD of Form B, Day 29, […]; read-out: Compound III Concentration, Min
Result type: concentration at 24 h (ng/mL)

[
  {
    "Given smiles": "O=C1NCC2(CCCCC2)n2c1cc1cnc(Nc3ccc(N4CCNCC4)cn3)nc12",
    "Result type": "concentration at 24 h",
    "Unit abbreviation": "ng/mL",
    "Result": 0.959
  }
]

====

Experiment: Noncompartmental pharmacokinetic parameters (Cmax, Tmax, AUC, Racc) in QD and BID cohorts of Form B
Format: in vivo, human
Measurement parameters: human, plasma, oral, 300 mg, Cohort 2, 300 mg QD of Form B, Day 1; read-out: AUClast, Mean

[
  {
    "Given smiles": "CC(C)N1CCN(c2ccc(Nc3ncc4cc5n(c4n3)C3(CCCCC3)CNC5=O)nc2)CC1",
    "AUC(0-t) / ng·h/mL": 413
  }
]

====

Experiment: Plasma concentration versus time of Compound I and metabolite Compound III in patients dosed QD or BID with Form B of Compound II plus fulvestrant
Assay type: in vivo, human
Measurement parameters: human, plasma, oral, 650 mg, Cohort 5, 650 mg QD of Form B, Day 29, 1.0 h; read-out: Compound I Concentration, Mean
Result type: concentration at 1 h (µg/mL)

[
  {
    "Molecule": "CC(C)N1CCN(c2ccc(Nc3ncc4cc5n(c4n3)C3(CCCCC3)CNC5=O)nc2)CC1 [Compound I]",
    "Unit abbreviation": "µg/mL",
    "Result": 0.0209
  }
]

====

Experiment: Plasma concentration versus time of Compound I and metabolite Compound III in patients dosed QD or BID with Form B of Compound II plus fulvestrant
Type: in vivo, human
Measurement parameters: human, plasma, oral, 150 mg, Cohort 7, 150 mg BID of Form B, Day 22; read-out: Trough Compound I Concentration, Min
Result type: concentration at 22 day (ng/mL)

[
  {
    "Given smiles": "CC(C)N1CCN(c2ccc(Nc3ncc4cc5n(c4n3)C3(CCCCC3)CNC5=O)nc2)CC1",
    "Unit abbreviation": "ng/mL",
    "Result": 15.5
  }
]

====

Experiment: Plasma concentration versus time of Compound I and metabolite Compound III in patients dosed QD or BID with Form B of Compound II plus fulvestrant
Assay type: in vivo, human
Measurement parameters: human, plasma, oral, 500 mg, 500 mg QD of Form B, Day 29, 12.0 h, Median; read-out: Compound I Concentration

[
  {
    "Given smiles": "CC(C)N1CCN(c2ccc(Nc3ncc4cc5n(c4n3)C3(CCCCC3)CNC5=O)nc2)CC1",
    "concentration at 12 h [ng/mL]": 25.2
  }
]

====

Experiment: Pharmacokinetics of Compound I in healthy volunteers after a single dose of Form B of Compound II
Format: in vivo, human
Measurement parameters: human, plasma, oral, single 48 mg dose of Form B of Compound II

[
  {
    "Molecule": "CC(C)N1CCN(c2ccc(Nc3ncc4cc5n(c4n3)C3(CCCCC3)CNC5=O)nc2)CC1 [Compound I]",
    "Cmax [ng/mL]": 3.65
  }
]

====

Experiment: Plasma concentration versus time of Compound I and metabolite Compound III in patients dosed QD or BID with Form B of Compound II plus fulvestrant
Format: in vivo, human
Measurement parameters: human, plasma, oral, 200 mg, 200 mg BID of Form B, Day 1, 1.0 h, Median; read-out: Compound I Concentration

[
  {
    "Given smiles": "CC(C)N1CCN(c2ccc(Nc3ncc4cc5n(c4n3)C3(CCCCC3)CNC5=O)nc2)CC1",
    "Unit abbreviation": "ng/mL",
    "concentration at 1 h": 6.13
  }
]

====

Experiment: Plasma concentration versus time of Compound I and metabolite Compound III in patients dosed QD or BID with Form B of Compound II plus fulvestrant
Type: in vivo, human
Measurement parameters: human, plasma, oral, 650 mg, Cohort 5, 650 mg QD of Form B, Day 29, 2.0 h; read-out: Compound I Concentration, Max

[
  {
    "Given smiles": "CC(C)N1CCN(c2ccc(Nc3ncc4cc5n(c4n3)C3(CCCCC3)CNC5=O)nc2)CC1",
    "concentration at 2 h / ng/mL": 34.9
  }
]

====

Experiment: Noncompartmental pharmacokinetic parameters (Cmax, Tmax, AUC, Racc) in QD and BID cohorts of Form B
Format: in vivo, human
Measurement parameters: human, plasma, oral, 150 mg, Compound III; 150 mg BID of Form B; Cohort 7; Day 1; read-out: AUClast (Mean)

[
  {
    "Molecule": "O=C1NCC2(CCCCC2)n2c1cc1cnc(Nc3ccc(N4CCNCC4)cn3)nc12 [Compound III]",
    "Unit abbreviation": "ng·h/mL",
    "AUC(0-t)": 16.5
  }
]

====

Experiment: Plasma concentration versus time of Compound I and metabolite Compound III in patients dosed QD or BID with Form B of Compound II plus fulvestrant
Assay type: in vivo, human
Measurement parameters: human, plasma, oral, 200 mg, 200 mg QD of Form B, Day 1, 0.0 h, Median; read-out: Compound I Concentration

[
  {
    "Compound": "CC(C)N1CCN(c2ccc(Nc3ncc4cc5n(c4n3)C3(CCCCC3)CNC5=O)nc2)CC1 [Compound I]",
    "concentration at 0 h": "0 ng/mL"
  }
]

====

Experiment: Plasma concentration versus time of Compound I and metabolite Compound III in patients dosed QD or BID with Form B of Compound II plus fulvestrant
Type: in vivo, human
Measurement parameters: human, plasma, oral, 650 mg, Cohort 5, 650 mg QD of Form B, Day 29, […]; read-out: Compound I Concentration, Min
Result type: concentration at 24 h (ng/mL)

[
  {
    "Compound": "CC(C)N1CCN(c2ccc(Nc3ncc4cc5n(c4n3)C3(CCCCC3)CNC5=O)nc2)CC1 [Compound I]",
    "Result": 20.7
  }
]

====

Experiment: Noncompartmental pharmacokinetic parameters (Cmax, Tmax, AUC, Racc) in QD and BID cohorts of Form B
Format: in vivo, human
Measurement parameters: human, plasma, oral, 300 mg, Compound III; 300 mg QD of Form B; Cohort 2; Day 1; read-out: Tmax (Mean)

[
  {
    "Given smiles": "O=C1NCC2(CCCCC2)n2c1cc1cnc(Nc3ccc(N4CCNCC4)cn3)nc12",
    "Unit abbreviation": "h",
    "Tmax": 3.67
  }
]

====

Experiment: Plasma concentration versus time of Compound I and metabolite Compound III in patients dosed QD or BID with Form B of Compound II plus fulvestrant
Format: in vivo, human
Measurement parameters: human, plasma, oral, 650 mg, 650 mg QD of Form B, Day 1, 1.0 h, Mean; read-out: Compound III Concentration
Result type: concentration at 1 h (ng/mL)

[
  {
    "Compound": "O=C1NCC2(CCCCC2)n2c1cc1cnc(Nc3ccc(N4CCNCC4)cn3)nc12 [Compound III]",
    "Result": 2.73
  }
]

====

Experiment: Plasma concentration versus time of Compound I and metabolite Compound III in patients dosed QD or BID with Form B of Compound II plus fulvestrant
Format: in vivo, human
Measurement parameters: human, plasma, oral, 100 mg, Cohort 6, 100 mg BID of Form B, Day 15; read-out: Trough Compound III Concentration, Min
Result type: concentration at 15 day (ng/mL)

[
  {
    "Molecule": "O=C1NCC2(CCCCC2)n2c1cc1cnc(Nc3ccc(N4CCNCC4)cn3)nc12 [Compound III]",
    "Result": 0
  }
]

====

Experiment: Pharmacokinetics of Compound I in healthy volunteers after a single dose of Form B of Compound II
Format: in vivo, human
Measurement parameters: human, plasma, oral, single 400 mg dose of Form B of Compound II
Result type: half-life (h)

[
  {
    "Given smiles": "CC(C)N1CCN(c2ccc(Nc3ncc4cc5n(c4n3)C3(CCCCC3)CNC5=O)nc2)CC1",
    "Result": 14.9
  }
]
